In this section, each of the molecules is paired with its reported inhibition at 1 µM.
Target: RORγt (Homo sapiens)
Assay: RORγt binding test (TR-FRET, fluorescent-labeled cholesterol)
Conditions: read-out: binding inhibitory rate (%) of fluorescent-labeled cholesterol to RORγt at test compound 1 μM
Description: The binding activity of the test compound to RORγt was measured by a time resolved fluorescence resonance energy transfer method (TR-FRET) utilizing histidine-tagged RORγt, fluorescent-labeled cholesterol (BODIPY-cholesterol, AVIVA), and terbium-labeled anti-histidine tag antibody (Invitrogen). First, a test compound diluted with an assay buffer (20 mM Tris-HCl (pH 7.5), 100 mM NaCl, 1 mM DTT, 0.1% BSA) was added to a 384 well plate by 3 μL. […]
# output: bare number, implied unit %

// worked examples, inhibition at 1 µM included
[[record]]
molecule = "COCc1ccc(C(C(=O)Nc2cc(F)c([Si](C)(C)C)cc2F)N(C)C(=O)c2cc(O)no2)cc1 (stereo not shown)"
metric = "inhibition at 1 µM"
test_value = 102

[[record]]
molecule = "COCc1ccc([C@@H](NC(=O)[C@H]2CNC(=O)C2)C(=O)Nc2cc(F)c(C(C)(C)C)c(F)c2)cc1"
metric = "inhibition at 1 µM"
test_value = 102

[[record]]
molecule = "CC(C)(C)c1ccc(NC(=O)[C@H](NC(=O)[C@@H]2CNC(=O)C2)c2ccc3c(c2)CCO3)cc1F"
metric = "inhibition at 1 µM"
test_value = 100

[[record]]
molecule = "COCc1ccc([C@@H](NC(=O)Cc2nnc(C)o2)C(=O)Nc2cc(F)c([Si](C)(C)C)cc2F)cc1"
metric = "inhibition at 1 µM"
test_value = 102


stdin: Param item = `COCc1ccc([C@@H](NC(=O)C2CCN(C(C)=O)CC2)C(=O)Nc2ccc([Si](C)(C)C)c(F)c2)cc1` ; retrieve measured inhibition at 1 µM.
stdout: 102

stdin: Repeat for the following molecule: `COc1ccc([C@@H](NC(=O)[C@@H]2CNC(=O)C2)C(=O)Nc2ccc([Si](C)(C)C)c(F)c2)cc1`
stdout: 102

stdin: Input COc1ccc(C(NC(=O)N2CC(O)C2)C(=O)Nc2cc(F)c([Si](C)(C)C)c(F)c2)cc1 (stereo not shown)
stdout: 101

====

Target: RORγt (Homo sapiens)
Assay: Cofactor recruitment test (Alpha Screen, biotinylated SRC-1 peptide)
Assay type: biochemical
Details: read-out: signal value inhibitory rate (%) at test compound 1 μM
metric: inhibition at 1 µM (%)
Could you give me the number in %? Just the number is fine.

[[record]]
molecule = "COCc1ccc(C(NC(=O)C2CNC(=O)C2)C(=O)Nc2ccc([Si](C)(C)C)c(C#N)c2)cc1 (stereo not shown)"
result_unit = "%"
test_value = 99.5

[[record]]
molecule = "CC(C)(C)c1ccc(NC(=O)[C@H](NC(=O)C2CNC(=O)O2)C2CCC(F)(F)CC2)cc1F (stereo partly shown)"
result_unit = "%"
test_value = 49.1

[[record]]
molecule = "COCc1ccc(C(NC(=O)N2CC(O)C2)C(=O)Nc2ccc([Si](C)(C)C)c(F)c2)cc1 (stereo not shown)"
result_unit = "%"
test_value = 98.9

[[record]]
molecule = "C[Si](C)(C)c1c(F)cc(NC(=O)[C@H](NC(=O)c2cc(O)no2)C2CCOCC2)cc1F"
result_unit = "%"
test_value = 72.3

[[record]]
molecule = "COCc1ccc(C(C(=O)Nc2cc(F)c([Si](C)(C)C)c(F)c2)N(C)C(=O)c2cc(O)no2)cc1 (stereo not shown)"
result_unit = "%"
test_value = 99.7


stdin: Given the molecule CN(C(=O)c1cc(O)no1)C(C(=O)Nc1cc(F)c([Si](C)(C)C)c(F)c1)C1CCOCC1 (stereo not shown) , what is its reported inhibition at 1 µM?
stdout: 99.4

stdin: Note, next up: `COc1ccc([C@H](C(=O)Nc2ccc([Si](C)(C)C)c(F)c2)N(C)C(=O)c2cc(O)no2)cc1`
stdout: 95.3

====

Target: UniProt P51449
Assay: Jurkat reporter test (human IL-17 ROR response element luciferase reporter)
Type: cell-based
Details: Jurkat, read-out: luminescence level inhibitory rate (%) at test compound 3 μM
metric: inhibition at 3 µM (%)
Expressed in %, but write only the number.

[[record]]
compound = "COCc1ccc(C(C(=O)Nc2ccc([Si](C)(C)C)c(F)c2)N(C)C(=O)c2cc(O)no2)cc1 (stereo not shown)"
measured_target = "UniProt P51449"
test_value = 99.5


stdin: Which measured inhibition at 3 µM value corresponds to `CCNC(=O)N[C@@H](C(=O)Nc1ccc([Si](C)(C)C)c(F)c1)c1ccc(COC)cc1` ?
stdout: 101

stdin: What about `COCc1ccc([C@@H](NC(=O)Cc2cc(O)no2)C(=O)Nc2ccc([Si](C)(C)C)c(F)c2)cc1` ?
stdout: 99.7

stdin: Then what about the compound `COc1ccc([C@@H](NC(=O)[C@H]2CNC(=O)C2)C(=O)Nc2ccc([Si](C)(C)C)c(F)c2)cc1` ?
stdout: 96.5

====

The compounds listed here are annotated with their inhibition at 1 µM.
Biological target: RORγt (Homo sapiens, UniProt P51449)
Assay: Cofactor recruitment test (Alpha Screen, biotinylated SRC-1 peptide)
Assay type: biochemical
Settings: read-out: signal value inhibitory rate (%) at test compound 1 μM
Express your answer in %, writing the number without its unit.

Worked cases, answers included:
[[record]]
compound = "COCc1ccc([C@@H](NC(=O)CC2CC(=O)NC(=O)C2)C(=O)Nc2ccc(C(C)(C)C)c(F)c2)cc1 [Example 117]"
metric = "inhibition at 1 µM"
test_value = 78.4

[[record]]
compound = "COCc1ccc([C@@H](NC(=O)C2CCN(C(C)=O)CC2)C(=O)Nc2ccc([Si](C)(C)C)c(F)c2)cc1 [Example 87]"
metric = "inhibition at 1 µM"
test_value = 83.9

[[record]]
compound = "COCc1ccc([C@@H](NC(=O)CCC(=O)O)C(=O)Nc2cc(F)c([Si](C)(C)C)c(F)c2)cc1 [Example 108]"
metric = "inhibition at 1 µM"
test_value = 95.3

[[record]]
compound = "COCc1ccc([C@@H](NC(=O)[C@H]2CNC(=O)C2)C(=O)Nc2cc(F)c([Si](C)(C)C)cc2F)cc1 [Example 55]"
metric = "inhibition at 1 µM"
test_value = 95.8


stdin: Observed inhibition at 1 µM on RORγt (Homo sapiens, UniProt P51449) for COc1ccc([C@@H](NC(=O)N2CC[C@H](O)C2)C(=O)Nc2ccc([Si](C)(C)C)c(F)c2)cc1 [Example 64] , please.
stdout: 90.1

stdin: Try this compound too: COc1ccc(C(NC(=O)Cc2ccn(C)n2)C(=O)Nc2ccc([Si](C)(C)C)cc2)cc1 (stereo not shown) [Example 19]
stdout: 50.7

stdin: Another compound to look at: COc1ccc(C(NC(=O)N2CCC(O)C2)C(=O)Nc2ccc([Si](C)(C)C)c(F)c2)cc1 (stereo not shown) [Example 29]
stdout: 92.3

====

Target: RORγt (Homo sapiens, UniProt P51449)
Test: Jurkat reporter test (human IL-17 ROR response element luciferase reporter)
Type: cell-based
Settings: test compound 3 μM; Jurkat cells; read-out: luminescence level inhibitory rate (%) at test compound 3 μM
metric: inhibition at 3 µM (%)
Express the result in % but write the number alone.

Below: 2 compounds and their reported inhibition at 3 µM.
[[record]]
compound = "CC(C)(C)c1ccc(NC(=O)[C@H](NC(=O)[C@@H]2CNC(=O)C2)c2ccc3c(c2)CCO3)cc1F"
metric = "inhibition at 3 µM"
result_unit = "%"
test_value = 97.4

[[record]]
compound = "COCc1ccc([C@@H](NC(=O)Cn2ccc(=O)[nH]c2=O)C(=O)Nc2ccc(C(C)(C)C)c(F)c2)cc1"
metric = "inhibition at 3 µM"
result_unit = "%"
test_value = 99.8


Next:
stdin: // returns reported inhibition at 3 µM for input COCc1ccc([C@@H](NC(=O)C2CNC(=O)C2)C(=O)Nc2ccc(CC(C)(C)C)c(F)c2)cc1 (stereo in doubt)
stdout: 97.3

====

Molecular target: UniProt:P51449
Sequence (P51449 1-497 isoform P51449-2): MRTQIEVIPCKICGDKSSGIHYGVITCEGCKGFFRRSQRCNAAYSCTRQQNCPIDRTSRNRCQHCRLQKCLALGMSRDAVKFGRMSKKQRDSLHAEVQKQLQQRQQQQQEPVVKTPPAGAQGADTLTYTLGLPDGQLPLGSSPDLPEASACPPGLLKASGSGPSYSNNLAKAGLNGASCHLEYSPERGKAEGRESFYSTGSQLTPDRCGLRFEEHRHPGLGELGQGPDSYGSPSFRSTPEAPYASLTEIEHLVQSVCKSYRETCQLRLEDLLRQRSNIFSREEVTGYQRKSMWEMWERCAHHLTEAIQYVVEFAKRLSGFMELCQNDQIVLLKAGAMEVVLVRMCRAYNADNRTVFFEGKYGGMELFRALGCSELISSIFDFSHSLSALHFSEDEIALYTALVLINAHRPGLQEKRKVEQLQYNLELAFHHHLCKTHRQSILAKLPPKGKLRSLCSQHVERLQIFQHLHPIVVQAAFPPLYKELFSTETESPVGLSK
Test: Jurkat reporter test (human IL-17 ROR response element luciferase reporter)
Type: cell-based
Settings: Jurkat, read-out: luminescence level inhibitory rate (%) at test compound 3 μM
Overview of reported inhibition at 3 µM across a group of molecules:
Report the figure in % without appending any unit label.

Examples from the recorded data:
[[record]]
molecule = "COCc1ccc([C@@H](NC(=O)CO)C(=O)Nc2ccc([Si](C)(C)C)c(F)c2)cc1"
test_value = 99

[[record]]
molecule = "COCc1ccc([C@@H](NC(=O)CC2CCOCC2)C(=O)Nc2ccc([Si](C)(C)C)c(F)c2)cc1"
test_value = 101


stdin: Need inhibition at 3 µM, item COc1ccc(C(NC(=O)C2CNC(=O)C2)C(=O)Nc2cc(F)c([Si](C)(C)C)cc2F)cc1 (stereo not shown)
stdout: 99.1

stdin: Param item: `COCc1ccc([C@@H](NC(=O)Cc2nnc(C)o2)C(=O)Nc2cc(F)c([Si](C)(C)C)cc2F)cc1`
stdout: 100

stdin: What do you get for `COc1ccc([C@@H](NC(=O)N2CC[C@@H](O)C2)C(=O)Nc2ccc([Si](C)(C)C)c(F)c2)cc1` ?
stdout: 99

stdin: Same for `COCc1ccc([C@@H](NC(=O)[C@@H]2CNC(=O)C2)C(=O)Nc2ccc([Si](C)(C)C)c(F)c2)cc1`
stdout: 98.4

stdin: Same for COCc1ccc(C(NC(=O)Cn2cnccc2=O)C(=O)Nc2ccc([Si](C)(C)C)c(F)c2)cc1 (stereo not shown)
stdout: 99.8
